Can you tell me pIC50 for the items I'm about to list?
target: α4β1 (Homo sapiens, UniProt P05556+P13612); construct: 100 µl of Jurkat cells (2.5 x 10^6 cells/ml) in DMEM plus BSA; experiment: Jurkat-CS-1 assay; conditions: Jurkat cell adhesion to immobilized CS-1 derived peptide
Sequence (P13612 34-1032): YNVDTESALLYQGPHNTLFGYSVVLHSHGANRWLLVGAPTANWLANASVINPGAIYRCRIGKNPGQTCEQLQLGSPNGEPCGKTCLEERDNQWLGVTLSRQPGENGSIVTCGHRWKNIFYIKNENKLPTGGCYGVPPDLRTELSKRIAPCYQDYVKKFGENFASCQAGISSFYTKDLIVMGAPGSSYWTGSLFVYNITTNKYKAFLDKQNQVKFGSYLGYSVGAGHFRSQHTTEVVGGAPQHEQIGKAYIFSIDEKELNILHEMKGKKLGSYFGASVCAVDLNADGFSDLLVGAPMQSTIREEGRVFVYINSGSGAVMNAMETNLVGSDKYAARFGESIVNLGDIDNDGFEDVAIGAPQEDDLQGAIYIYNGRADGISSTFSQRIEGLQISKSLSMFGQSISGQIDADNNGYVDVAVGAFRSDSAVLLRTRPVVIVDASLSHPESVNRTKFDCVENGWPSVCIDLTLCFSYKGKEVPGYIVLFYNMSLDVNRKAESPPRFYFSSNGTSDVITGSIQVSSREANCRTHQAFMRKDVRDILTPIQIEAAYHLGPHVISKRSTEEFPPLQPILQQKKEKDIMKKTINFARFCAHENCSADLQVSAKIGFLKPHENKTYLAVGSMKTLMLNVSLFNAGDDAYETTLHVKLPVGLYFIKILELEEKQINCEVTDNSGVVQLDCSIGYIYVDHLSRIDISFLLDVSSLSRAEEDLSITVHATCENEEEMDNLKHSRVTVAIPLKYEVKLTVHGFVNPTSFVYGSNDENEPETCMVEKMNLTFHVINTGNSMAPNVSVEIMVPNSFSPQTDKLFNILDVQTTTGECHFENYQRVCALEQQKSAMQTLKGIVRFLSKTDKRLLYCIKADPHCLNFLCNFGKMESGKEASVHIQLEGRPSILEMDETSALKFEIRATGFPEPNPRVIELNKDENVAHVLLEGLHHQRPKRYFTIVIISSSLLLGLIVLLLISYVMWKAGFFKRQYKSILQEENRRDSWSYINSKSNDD
Sequence (P05556 21-798): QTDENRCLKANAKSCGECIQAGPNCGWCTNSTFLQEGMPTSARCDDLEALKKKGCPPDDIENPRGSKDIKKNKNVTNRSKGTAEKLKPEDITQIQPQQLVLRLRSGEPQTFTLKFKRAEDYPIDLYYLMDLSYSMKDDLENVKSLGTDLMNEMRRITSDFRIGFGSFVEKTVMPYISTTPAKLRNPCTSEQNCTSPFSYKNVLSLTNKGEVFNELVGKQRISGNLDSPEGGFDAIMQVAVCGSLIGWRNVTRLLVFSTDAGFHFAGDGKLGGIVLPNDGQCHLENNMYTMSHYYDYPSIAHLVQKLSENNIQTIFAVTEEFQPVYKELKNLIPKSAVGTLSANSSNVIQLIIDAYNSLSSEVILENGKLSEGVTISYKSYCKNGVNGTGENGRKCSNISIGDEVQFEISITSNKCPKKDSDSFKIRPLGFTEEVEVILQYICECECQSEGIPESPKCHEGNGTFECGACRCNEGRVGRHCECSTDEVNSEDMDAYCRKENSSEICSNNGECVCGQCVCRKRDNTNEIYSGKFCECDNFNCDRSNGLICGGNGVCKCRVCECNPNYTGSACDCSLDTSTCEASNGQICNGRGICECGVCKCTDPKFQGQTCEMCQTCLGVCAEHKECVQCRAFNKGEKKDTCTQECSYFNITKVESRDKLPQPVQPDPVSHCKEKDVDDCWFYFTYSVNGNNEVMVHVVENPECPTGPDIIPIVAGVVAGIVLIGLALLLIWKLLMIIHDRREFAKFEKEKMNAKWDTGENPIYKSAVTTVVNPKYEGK
pIC50: −log10 of the molar value.

// for each compound in input: emit pIC50
1. O=C(Nc1ccc(C[C@H](NC(=O)C2(NC(=O)C3NC(C(=O)O)CS3)CCCCC2)C(=O)O)cc1)c1c(Cl)cccc1Cl (some centres unmarked)
2. CC(=O)[C@@H]1C[C@H](CC(=O)N[C@@H](Cc2ccc(NC(=O)c3c(Cl)cccc3Cl)cc2)C(=O)O)C1(C)C

result:
6.30 to 7.10
6.00 to 6.30

====

molecular target: α4β1 integrin (Homo sapiens, UniProt P05556+P13612); construct: a T-cell line, Jurkat, known to express the α4β1 integrin; test: Jurkat-Endothelial Cell Adhesion Assay (Jurkat EC); conditions: Jurkat cell adhesion to IL-1 stimulated endothelial cell monolayers
Sequence (P13612 34-1032): as the sequence (P13612 34-1032) above
Sequence (P05556 21-798): as the sequence (P05556 21-798) above
Recorded Endpoint: IC50

// worked examples, IC50 included
CC(Oc1cccc(/C=C/C(=O)O)c1)C(=O)N[C@@H](Cc1ccc(NC(=O)c2c(Cl)cccc2Cl)cc1)C(=O)O (stereo partly shown) [Example 21] | 5 to 10 µM
O=C(C=C1CCC(C(=O)O)CC1)N[C@@H](Cc1ccc(NC(=O)c2c(Cl)cccc2Cl)cc1)C(=O)O (stereo partly shown) [Example 127] | 0.8 to 5 µM
O=C(NC1(C(=O)N[C@@H](Cc2ccc(NC(=O)c3c(Cl)cccc3Cl)cc2)C(=O)O)CCCCC1)c1ccc([N+](=O)[O-])o1 [Example 67] | ≤ 0.8 µM
O=C(O)/C=C/c1cccc(C(=O)N[C@@H](Cc2ccc(NC(=O)c3c(Cl)cccc3Cl)cc2)C(=O)O)c1 [Example 124] | 0.8 to 5 µM
CC(O)[C@H]1C[C@@H](CC(=O)N[C@@H](Cc2ccc(NC(=O)c3c(Cl)cccc3Cl)cc2)C(=O)O)C1(C)C (stereo partly shown) [Example 89] | 5 to 10 µM

// for each molecule in input: emit IC50
1. O=C(Nc1ccc(C[C@H](NC(=O)N2CCC(C(=O)O)CC2)C(=O)O)cc1)c1c(Cl)cccc1Cl [Example 113]
2. O=C(O)c1cccc(OC(C(=O)N[C@@H](Cc2ccc(NC(=O)c3c(Cl)cccc3Cl)cc2)C(=O)O)c2ccccc2)c1 (stereo partly shown) [Example 16]

result:
1. 0.8 to 5 µM
2. 0.8 to 5 µM

====

target: α4β1 integrin (Homo sapiens, UniProt P05556+P13612); construct: a T-cell line, Jurkat, known to express the α4β1 integrin; assay: Jurkat-Endothelial Cell Adhesion Assay (Jurkat EC); conditions: Jurkat cell adhesion to IL-1 stimulated endothelial cell monolayers
pIC50: −log10 of the molar value.
Recorded Endpoint: pIC50

// worked examples, pIC50 included
CC(=O)[C@H]1C[C@H](C(=O)N[C@@H](Cc2ccc(NC(=O)c3cccnc3Cl)cc2)C(=O)O)C1(C)C [Example 104] | 5.30 to 6.10
O=C(NC1(C(=O)N[C@@H](Cc2ccc(NC(=O)c3c(Cl)cccc3Cl)cc2)C(=O)O)CC2CCC1C2)c1cc(C(=O)O)[nH]n1 (some centres unmarked) [Example 74] | 5.30 to 6.10
O=C(O)c1cccc(C(=O)NC2(C(=O)N[C@@H](Cc3ccc(NC(=O)c4c(Cl)cccc4Cl)cc3)C(=O)O)CCCCC2)n1 [Example 62] | 5.30 to 6.10
O=C(O)C=C1CCC(C(=O)N[C@@H](Cc2ccc(NC(=O)c3c(Cl)cccc3Cl)cc2)C(=O)O)CC1 (some centres unmarked) [Example 126] | 5.30 to 6.10
O=C(Nc1ccc(CC(NC(=O)C2CCCCC2C(=O)O)C(=O)O)cc1)c1c(Cl)cccc1Cl (centres unmarked) [Example 8] | 5.30 to 6.10
CC1=C(C(=O)N[C@@H](Cc2ccc(OCc3c(Cl)cccc3Cl)cc2)C(=O)O)C(C)(C)CC/C1=C\C(=O)O [Example 119] | ≥ 6.10
O=C(Nc1ccc(C[C@H](NC(=O)C2(NC(=O)C3CCCO3)CC3CCC2C3)C(=O)O)cc1)c1c(Cl)cccc1Cl (some centres unmarked) [Example 77] | ≥ 6.10
CC(=O)[C@H]1C[C@@H](C(=O)N[C@@H](Cc2ccc(NC(=O)c3c(Cl)cccc3Cl)cc2)C(=O)O)C1(C)C [Example 101] | 5.30 to 6.10
O=C(Nc1ccc(C[C@H](NC(=O)[C@H]2CC[C@@H](C(=O)O)C2)C(=O)O)cc1)c1c(Cl)cccc1Cl (mixture of isomers) [Example 112] | 5.30 to 6.10
CC(Oc1cccc(C(=O)O)c1)C(=O)N[C@@H](Cc1ccc(NC(=O)c2c(Cl)cccc2Cl)cc1)C(=O)O (some centres unmarked) [Example 14] | 5.30 to 6.10

// for each compound in input: emit pIC50
1. CC(C)(CC(=O)O)CC(=O)NC1(C(=O)N[C@@H](Cc2ccc(NC(=O)c3c(Cl)cccc3Cl)cc2)C(=O)O)CCCCC1 [Example 48]
2. CC1(C)[C@@H](C(=O)O)C[C@@H]1C(=O)N[C@@H](Cc1ccc(NC(=O)c2c(Cl)cccc2Cl)cc1)C(=O)O [Example 98]
3. CC(=O)[C@H]1C[C@H](C(=O)N[C@@H](Cc2ccc(NC(=O)c3ccc(Cl)nc3Cl)cc2)C(=O)O)C1(C)C [Example 106]
4. O=C(Nc1ccc(C[C@H](NC(=O)C2(NC(=O)C3CCOC3)CCCCC2)C(=O)O)cc1)c1c(Cl)cccc1Cl (some centres unmarked) [Example 69]

result:
1. 5.30 to 6.10
2. ≥ 6.10
3. 5.30 to 6.10
4. ≥ 6.10
